Source of measurements: patent US9873704B2

target: PI3Kδ (Homo sapiens); construct: Full length p110 subunits of PI3k α, β and δ, N-terminally labeled with polyHis tag; polyHis (N); made in house; host or cells: Sf9 insect cells (baculovirus); assay: PI3Kδ Alphascreen assay; type: biochemical
Sequence (O00329 whole entry): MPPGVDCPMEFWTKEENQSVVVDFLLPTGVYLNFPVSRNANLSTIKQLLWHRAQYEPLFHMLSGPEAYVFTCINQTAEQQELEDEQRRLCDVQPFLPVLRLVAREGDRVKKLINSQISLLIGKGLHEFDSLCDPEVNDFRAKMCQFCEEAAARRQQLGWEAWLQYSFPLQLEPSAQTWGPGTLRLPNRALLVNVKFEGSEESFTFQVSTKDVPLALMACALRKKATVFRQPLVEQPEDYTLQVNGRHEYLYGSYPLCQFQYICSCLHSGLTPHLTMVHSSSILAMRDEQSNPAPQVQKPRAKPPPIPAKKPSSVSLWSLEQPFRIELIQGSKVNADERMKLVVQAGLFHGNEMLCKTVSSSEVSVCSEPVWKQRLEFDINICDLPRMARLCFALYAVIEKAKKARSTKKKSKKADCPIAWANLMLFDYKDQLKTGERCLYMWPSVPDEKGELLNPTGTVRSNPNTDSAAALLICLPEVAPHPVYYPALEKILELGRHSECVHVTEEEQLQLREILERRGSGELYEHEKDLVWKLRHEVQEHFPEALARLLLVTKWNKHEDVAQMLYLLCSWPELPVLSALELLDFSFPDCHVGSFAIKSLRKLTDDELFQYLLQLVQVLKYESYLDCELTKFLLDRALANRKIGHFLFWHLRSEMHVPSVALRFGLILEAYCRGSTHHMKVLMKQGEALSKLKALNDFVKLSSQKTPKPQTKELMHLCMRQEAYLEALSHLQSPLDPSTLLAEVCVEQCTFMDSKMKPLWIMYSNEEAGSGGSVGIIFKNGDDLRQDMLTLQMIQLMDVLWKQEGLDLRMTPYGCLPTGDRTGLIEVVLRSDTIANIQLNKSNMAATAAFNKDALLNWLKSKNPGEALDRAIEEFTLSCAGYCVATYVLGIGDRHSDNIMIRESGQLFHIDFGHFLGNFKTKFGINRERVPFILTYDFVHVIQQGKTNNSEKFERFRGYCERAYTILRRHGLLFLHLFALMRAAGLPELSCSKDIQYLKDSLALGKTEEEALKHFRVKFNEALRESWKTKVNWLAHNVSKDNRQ
Sequence (P27986 whole entry partner): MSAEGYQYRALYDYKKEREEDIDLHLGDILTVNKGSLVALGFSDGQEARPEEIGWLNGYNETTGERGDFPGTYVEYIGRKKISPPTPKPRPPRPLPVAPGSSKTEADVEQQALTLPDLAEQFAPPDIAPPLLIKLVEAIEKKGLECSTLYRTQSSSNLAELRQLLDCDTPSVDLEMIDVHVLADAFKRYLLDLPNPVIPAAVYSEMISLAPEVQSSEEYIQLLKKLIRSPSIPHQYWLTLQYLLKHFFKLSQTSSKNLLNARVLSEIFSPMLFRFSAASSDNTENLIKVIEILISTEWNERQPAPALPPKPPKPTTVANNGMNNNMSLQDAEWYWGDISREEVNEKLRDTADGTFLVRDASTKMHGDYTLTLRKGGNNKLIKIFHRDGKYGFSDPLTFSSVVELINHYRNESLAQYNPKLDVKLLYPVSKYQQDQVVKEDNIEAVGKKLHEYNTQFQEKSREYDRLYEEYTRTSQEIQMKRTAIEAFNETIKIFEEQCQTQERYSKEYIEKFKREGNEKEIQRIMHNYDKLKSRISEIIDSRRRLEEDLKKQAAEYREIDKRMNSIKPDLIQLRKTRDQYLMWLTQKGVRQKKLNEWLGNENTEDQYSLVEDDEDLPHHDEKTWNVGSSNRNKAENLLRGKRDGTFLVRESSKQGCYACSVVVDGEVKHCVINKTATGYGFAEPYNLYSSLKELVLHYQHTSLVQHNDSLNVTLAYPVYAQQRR
Assign Ki to each entry below.
Please state the figure in nM; there is no need to write the unit.

Exercise: Ki of C[C@H](Nc1ncnc(N)c1C#N)c1nc2cccc(F)c2c(S(C)(=O)=O)c1-c1ccccc1 on PI3Kδ (Homo sapiens)?
Solution: 1.3

Exercise: Ki of CC(Nc1ncnc(N)c1C#N)c1nc2ccc(F)cc2c(C(=O)NCC2CC2)c1-c1ccccc1 (centres unmarked) on PI3Kδ (Homo sapiens)?
Solution: 5.15

Exercise: Ki of C[C@H](Nc1ncnc(N)c1C#N)c1nc2cccc(Cl)c2cc1-c1ccccn1 on PI3Kδ (Homo sapiens)?
Solution: 0.4

Exercise: Ki of CC(Nc1cc(N)ncn1)c1nc2ccc(F)cc2cc1-c1ccccn1 (centres unmarked) on PI3Kδ (Homo sapiens)?
Solution: 3730

Exercise: Ki of CC(Nc1ncnc(N)c1C#N)c1nc2ccc(F)cc2c(N2CC(O)C2)c1-c1ccccn1 (centres unmarked) on PI3Kδ (Homo sapiens)?
Solution: 1.78

Exercise: Ki of CC(Nc1ncnc(N)c1C#N)c1nc2ccc(F)cc2c(C(=O)O)c1-c1ccccn1 (centres unmarked) on PI3Kδ (Homo sapiens)?
Solution: 119

Exercise: Ki of CC(Nc1ncnc(N)c1C#N)c1nc2ccc(F)cc2c(C(=O)N2CCCC2)c1-c1ccccc1 (centres unmarked) on PI3Kδ (Homo sapiens)?
Solution: 7.06

Exercise: Ki of C[C@@H](Nc1ccnc(N)n1)c1nc2ccc(F)cc2cc1-c1ccccn1 on PI3Kδ (Homo sapiens)?
Solution: 5520

Exercise: Ki of COCCNc1c(-c2ccccc2)c([C@@H](C)Nc2ncnc(N)c2C#N)nc2ccc(F)cc12 on PI3Kδ (Homo sapiens)?
Solution: 62.2

Exercise: Ki of CC(Nc1ncnc(N)c1C#N)c1nc2ccc(F)cc2c(NCCS(C)(=O)=O)c1-c1ccccc1 (centres unmarked) on PI3Kδ (Homo sapiens)?
Solution: 0.463

Exercise: Ki of CC(Nc1ncnc(N)c1C#N)c1nc2ccc(F)cc2c(S(C)(=O)=O)c1-c1cc(F)cc(F)c1 (centres unmarked) on PI3Kδ (Homo sapiens)?
Solution: 1.12

Exercise: Ki of CC(Nc1ncnc(N)c1C#N)c1nc2ccc(F)cc2c(NCCO)c1-c1ccccc1 (centres unmarked) on PI3Kδ (Homo sapiens)?
Solution: 0.396

Exercise: Ki of C[C@@H](Nc1ncnc(N)c1C#N)c1nc2cccc(Cl)c2cc1-c1ccccn1 on PI3Kδ (Homo sapiens)?
Solution: 57.9

Exercise: Ki of C[C@@H](Nc1ncnc(N)c1C#N)c1nc2ccc(F)cc2c(C(=O)N(C)C)c1-c1ccccn1 (stereo in doubt) on PI3Kδ (Homo sapiens)?
Solution: 7.77

Exercise: Ki of CC(Nc1ncnc(N)c1C#N)c1nc2ccc(F)cc2c(C(=O)N2CCN(C)CC2)c1-c1ccccc1 (centres unmarked) on PI3Kδ (Homo sapiens)?
Solution: 1.32

Exercise: Ki of C[C@H](Nc1ncnc(N)c1C#N)c1nc2cccc(C#N)c2cc1-c1ccccn1 on PI3Kδ (Homo sapiens)?
Solution: 14.1

Exercise: Ki of COC1CN(C(=O)c2c(-c3ccccc3)c(C(C)Nc3ncnc(N)c3C#N)nc3ccc(F)cc23)C1 (centres unmarked) on PI3Kδ (Homo sapiens)?
Solution: 1.75

Exercise: Ki of C[C@H](Nc1ncnc(N)c1C#N)c1nc2ccc(F)cc2cc1-c1cccc(S(C)(=O)=O)n1 on PI3Kδ (Homo sapiens)?
Solution: 130

Exercise: Ki of C[C@H](Nc1ncnc2[nH]cnc12)c1nc2ccc(F)cc2cc1-c1ccccn1 on PI3Kδ (Homo sapiens)?
Solution: 4.15

Exercise: Ki of COc1c(-c2ccccc2)c([C@@H](C)Nc2ncnc(N)c2C#N)nc2ccc(F)cc12 on PI3Kδ (Homo sapiens)?
Solution: 271

Exercise: Ki of CC(Nc1ncnc(N)c1C#N)c1nc2ccc(F)cc2c(C(=O)O)c1-c1ccccc1 (centres unmarked) on PI3Kδ (Homo sapiens)?
Solution: 74.2

Exercise: Ki of CS(=O)(=O)c1ccccc1-c1cc2c(F)cccc2nc1CNc1ncnc(N)c1C#N on PI3Kδ (Homo sapiens)?
Solution: 39

Exercise: Ki of C[C@H](c1nc2ccc(F)cc2cc1-c1cncc(F)c1)n1nc(C#N)c2c(N)ncnc21 on PI3Kδ (Homo sapiens)?
Solution: 5470

Exercise: Ki of CC(Nc1ncnc(N)c1C#N)c1nc2ccc(F)cc2c([S@@+]([O-])CCO)c1-c1ccccc1 (some centres unmarked) on PI3Kδ (Homo sapiens)?
Solution: 1.8

Exercise: Ki of N#Cc1c(N)ncnc1NCc1nc2cccc(F)c2cc1-c1ccccn1 on PI3Kδ (Homo sapiens)?
Solution: 137

Exercise: Ki of COC(=O)c1c(-c2ccccc2)c(C(C)Nc2ncnc(N)c2C#N)nc2ccc(F)cc12 (centres unmarked) on PI3Kδ (Homo sapiens)?
Solution: 1.56

Exercise: Ki of COCCNc1c(-c2ccccc2)c([C@H](C)Nc2ncnc(N)c2C#N)nc2ccc(F)cc12 on PI3Kδ (Homo sapiens)?
Solution: 0.61

Exercise: Ki of C[C@H](Nc1ncnc(N)c1C#N)c1nc2ccc(F)cc2c(C(=O)N2CCOCC2)c1-c1ccccc1 on PI3Kδ (Homo sapiens)?
Solution: 0.505

Exercise: Ki of CC(Nc1ncnc(N)c1C#N)c1nc2ccc(F)cc2c(N(C)C)c1-c1ccccn1 (centres unmarked) on PI3Kδ (Homo sapiens)?
Solution: 1.4

Exercise: Ki of CC(Nc1ncnc2[nH]cnc12)c1nc2cccc(F)c2c(S(C)(=O)=O)c1-c1ccccc1 (centres unmarked) on PI3Kδ (Homo sapiens)?
Solution: 2.24

Exercise: Ki of C[C@@H](c1nc2ccc(F)cc2cc1-c1cncc(F)c1)n1nc(C#N)c2c(N)ncnc21 on PI3Kδ (Homo sapiens)?
Solution: 25

Exercise: Ki of CC(Nc1ncnc(N)c1C#N)c1nc2ccc(F)cc2c(CO)c1-c1ccccc1 (centres unmarked) on PI3Kδ (Homo sapiens)?
Solution: 1.68

Exercise: Ki of N#Cc1c(N)ncnc1NCc1nc2c(F)cccc2cc1-c1ccccc1 on PI3Kδ (Homo sapiens)?
Solution: 12.3

Exercise: Ki of C[C@H](c1nc2ccc(F)cc2cc1-c1ccccn1)n1nc(C#N)c2c(N)ncnc21 on PI3Kδ (Homo sapiens)?
Solution: 320

Exercise: Ki of C[C@H](Nc1ncnc2[nH]cnc12)c1nc2ccc(F)cc2c(S(C)(=O)=O)c1-c1ccccc1 on PI3Kδ (Homo sapiens)?
Solution: 1.12

Exercise: Ki of CC(Nc1ncnc(N)c1C#N)c1nc2ccc(F)cc2c(CN2CCOCC2)c1-c1ccccc1 (centres unmarked) on PI3Kδ (Homo sapiens)?
Solution: 1.31

Exercise: Ki of CC(Nc1ncnc(N)c1C(N)=O)c1nc2ccc(F)cc2c(C(=O)O)c1-c1ccccc1 (centres unmarked) on PI3Kδ (Homo sapiens)?
Solution: 7.16

Exercise: Ki of CC(Nc1ncnc(N)c1C#N)c1nc2ccncc2cc1-c1ccccn1 (racemic) on PI3Kδ (Homo sapiens)?
Solution: 470
